Entries and their IC50 (inhibition of IL-23 driven STAT3 phosphorylation in human activated T cell blasts) values follow.
TARGET_SYSTEM: T1, human IL-23 (human, UniProt Q9NPF7 20-189; P29460 23-328)
T1 sequence 1: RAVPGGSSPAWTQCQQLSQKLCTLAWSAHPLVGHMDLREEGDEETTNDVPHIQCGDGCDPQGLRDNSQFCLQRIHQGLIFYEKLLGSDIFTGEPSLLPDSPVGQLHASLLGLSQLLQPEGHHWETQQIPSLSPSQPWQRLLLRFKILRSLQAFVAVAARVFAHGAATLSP
T1 sequence 2: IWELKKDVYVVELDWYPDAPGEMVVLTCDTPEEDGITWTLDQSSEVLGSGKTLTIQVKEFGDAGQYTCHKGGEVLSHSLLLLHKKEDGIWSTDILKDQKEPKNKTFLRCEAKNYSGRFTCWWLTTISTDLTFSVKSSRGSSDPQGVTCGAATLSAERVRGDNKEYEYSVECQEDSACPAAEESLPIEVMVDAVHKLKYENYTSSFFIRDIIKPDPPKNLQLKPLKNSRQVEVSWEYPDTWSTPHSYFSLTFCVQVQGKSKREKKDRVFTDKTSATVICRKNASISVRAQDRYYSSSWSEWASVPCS
PROTOCOL_DESCRIPTION: cell-based or functional assay
QUANTITY_MEASURED: IC50 (inhibition of IL-23 driven STAT3 phosphorylation in human activated T cell blasts) (nM)

BINDER	UNIT_ABBREV	VALUE_REPORTED
A24AM18 (antibody, human IgG1, kappa, V domains shown) VH: QVQLVQSGAEVKKPGSSVKVSCKASGYTFTSYGITWVRQAPGQGLEWMGENYPRSGNIYYNEKFKGRVTITADKSTSTAYMELSSLRSEDTAVYYCARAEFISTVVAPYYYALDYWGQGTLVTVSS VL: DIVMTQSPDSLAVSLGERATINCKASKKVTIFGSTSALHWYQQKPGQPPKLIYNLAKPESGVPDRFSGSGSGTDFTLTISSLQAEDVAVYYCLQNKEVPYTFGGGTKVEIKR	nM	0.0473
A5M20 (antibody, human IgG1, kappa, V domains shown) VH: QVQLVQSGAEVKKPGSSVKVSCKASGYTFTSYGITWVRQAPGQGLEWMGENYPRSGNTYYNEKFKGRVTITADKSTSTAYMELSSLRSEDTAVYYCARAEFISTVVAPYYYALDYWGQGTLVTVSS VL: DIVMTQSPDSLAVSLGERATINCKASKKVTIFGSISALHWYQQKPGQPPKLIYNLAKLESGVPDRFSGSGSGTDFTLTISSLQAEDVAVYYCLQNKEVPYTFGGGTKVEIKR	nM	0.0685
A3M0 (antibody, human IgG1, kappa, V domains shown, human gamma1 and kappa constant regions; Tested as HEK supernatant and as purified antibody; also called A3M0 purified) VH: QVQLVQSGAEVKKPGSSVKVSCKASGYTFTSYGITWVRQAPGQGLEWMGENYPRSGNTYYNEKFKGRVTITADKSTSTAYMELSSLRSEDTAVYYCARSEFISTVVAPYYYALDYWGQGTLVTVSS VL: DIVMTQSPDSLAVSLGERATINCKASKKVTIFGSISALHWYQQKPGQPPKLIYNGAKLESGVPDRFSGSGSGTDFTLTISSLQAEDVAVYYCLQNKEVPYTFGGGTKVEIKR	nM	0.115
A5M21 (antibody, human IgG1, kappa, V domains shown) VH: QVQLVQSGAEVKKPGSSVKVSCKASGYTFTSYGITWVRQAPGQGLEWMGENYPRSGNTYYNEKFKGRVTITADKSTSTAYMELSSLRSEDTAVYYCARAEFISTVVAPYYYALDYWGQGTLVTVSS VL: DIVMTQSPDSLAVSLGERATINCKASKKVTIYGSTSALHWYQQKPGQPPKLIYNLAKPESGVPDRFSGSGSGTDFTLTISSLQAEDVAVYYCLQNKEVPYTFGGGTKVEIKR	nM	0.0384

Every entry's value here was drawn from patent US20120128689A1.
